All values here come from paper PMC12677653.

Assayed target: T1, WT GST-PCK1 (human, UniProt P35558 1-622, biotin (G-MM-IGT Biotinylation kit))
T1 chain: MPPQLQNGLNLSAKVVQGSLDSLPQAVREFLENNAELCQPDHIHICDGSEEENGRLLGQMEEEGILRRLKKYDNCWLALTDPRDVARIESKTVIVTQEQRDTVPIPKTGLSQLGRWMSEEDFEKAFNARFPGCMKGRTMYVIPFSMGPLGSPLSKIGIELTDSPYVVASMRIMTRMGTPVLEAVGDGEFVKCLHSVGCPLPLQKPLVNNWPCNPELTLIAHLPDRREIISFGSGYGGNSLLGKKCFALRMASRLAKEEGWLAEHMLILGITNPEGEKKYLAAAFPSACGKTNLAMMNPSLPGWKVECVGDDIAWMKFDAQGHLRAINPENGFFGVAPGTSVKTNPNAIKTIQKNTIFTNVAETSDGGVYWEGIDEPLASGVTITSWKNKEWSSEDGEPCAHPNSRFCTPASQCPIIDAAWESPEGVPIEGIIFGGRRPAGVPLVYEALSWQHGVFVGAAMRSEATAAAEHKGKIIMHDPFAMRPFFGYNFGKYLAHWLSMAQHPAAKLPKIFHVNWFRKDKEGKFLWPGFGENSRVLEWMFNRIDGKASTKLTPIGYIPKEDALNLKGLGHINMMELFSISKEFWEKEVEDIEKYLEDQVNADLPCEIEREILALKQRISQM
Assay overview: BLI
Outcome measure: Kd (µM)
Could you give me the number in µM? Just the number is fine.

query: Give the reported Kd for this binder. LYPCIDSHLGEPHKFKRE [Insig1/2 loop 1 peptide (143-LYPCIDSHLGEPHKFKRE-160)]
result: 36.8
